# system.tested: human IR-A (Homo sapiens, UniProt P06213)
# Sequence (P06213 763-1382): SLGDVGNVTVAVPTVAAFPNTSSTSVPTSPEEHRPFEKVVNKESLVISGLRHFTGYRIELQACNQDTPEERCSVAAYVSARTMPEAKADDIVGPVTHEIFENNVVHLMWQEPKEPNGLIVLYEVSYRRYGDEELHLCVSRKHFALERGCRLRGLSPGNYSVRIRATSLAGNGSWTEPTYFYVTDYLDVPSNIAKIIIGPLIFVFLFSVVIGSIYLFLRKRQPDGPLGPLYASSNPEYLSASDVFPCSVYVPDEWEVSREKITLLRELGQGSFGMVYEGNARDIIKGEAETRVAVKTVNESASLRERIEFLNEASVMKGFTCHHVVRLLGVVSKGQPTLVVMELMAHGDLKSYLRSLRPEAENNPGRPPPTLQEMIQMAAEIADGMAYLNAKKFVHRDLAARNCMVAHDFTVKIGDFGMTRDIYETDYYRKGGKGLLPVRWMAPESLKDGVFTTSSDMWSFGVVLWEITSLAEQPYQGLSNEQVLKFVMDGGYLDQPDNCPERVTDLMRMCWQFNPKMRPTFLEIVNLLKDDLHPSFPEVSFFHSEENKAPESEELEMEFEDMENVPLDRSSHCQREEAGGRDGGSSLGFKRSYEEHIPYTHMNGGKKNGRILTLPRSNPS
# Sequence (P06213 other isoform, or with tags, fused parts or gaps): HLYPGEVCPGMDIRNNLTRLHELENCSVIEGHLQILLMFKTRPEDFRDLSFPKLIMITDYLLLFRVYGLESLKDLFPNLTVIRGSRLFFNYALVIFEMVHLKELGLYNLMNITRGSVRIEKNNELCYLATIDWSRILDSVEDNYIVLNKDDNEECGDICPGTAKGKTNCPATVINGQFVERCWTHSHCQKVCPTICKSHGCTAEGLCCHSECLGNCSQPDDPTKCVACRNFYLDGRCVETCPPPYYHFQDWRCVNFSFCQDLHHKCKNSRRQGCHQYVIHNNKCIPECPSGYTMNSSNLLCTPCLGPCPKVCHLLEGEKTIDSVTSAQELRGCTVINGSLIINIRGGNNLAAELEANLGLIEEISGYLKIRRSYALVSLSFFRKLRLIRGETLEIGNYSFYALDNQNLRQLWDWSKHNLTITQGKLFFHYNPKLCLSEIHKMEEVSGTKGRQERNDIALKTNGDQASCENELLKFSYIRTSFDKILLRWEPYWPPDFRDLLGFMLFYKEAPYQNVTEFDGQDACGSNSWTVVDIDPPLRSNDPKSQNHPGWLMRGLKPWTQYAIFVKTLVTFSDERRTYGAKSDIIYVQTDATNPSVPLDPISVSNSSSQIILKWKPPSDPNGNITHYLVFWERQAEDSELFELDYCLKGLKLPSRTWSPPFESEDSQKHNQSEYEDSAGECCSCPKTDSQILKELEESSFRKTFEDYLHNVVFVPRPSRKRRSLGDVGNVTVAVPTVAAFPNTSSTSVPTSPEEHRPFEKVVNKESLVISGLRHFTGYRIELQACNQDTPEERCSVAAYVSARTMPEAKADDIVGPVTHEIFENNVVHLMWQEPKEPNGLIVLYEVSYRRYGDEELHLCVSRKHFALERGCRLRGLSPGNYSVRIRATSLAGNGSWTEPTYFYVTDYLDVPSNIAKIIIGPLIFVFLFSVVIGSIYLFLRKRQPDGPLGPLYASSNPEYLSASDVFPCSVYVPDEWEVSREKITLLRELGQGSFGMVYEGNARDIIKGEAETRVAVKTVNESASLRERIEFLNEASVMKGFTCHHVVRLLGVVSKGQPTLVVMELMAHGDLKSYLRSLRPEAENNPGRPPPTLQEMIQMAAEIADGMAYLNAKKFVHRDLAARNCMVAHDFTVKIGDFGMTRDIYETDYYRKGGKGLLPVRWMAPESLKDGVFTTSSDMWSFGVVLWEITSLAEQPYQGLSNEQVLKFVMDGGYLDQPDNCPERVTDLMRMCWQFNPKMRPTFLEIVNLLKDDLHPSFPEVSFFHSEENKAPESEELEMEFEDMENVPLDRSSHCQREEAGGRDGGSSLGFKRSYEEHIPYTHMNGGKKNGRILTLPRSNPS
# test.name: Whole-cell binding competition assay with 125I-insulin on IM-9 lymphoblasts
# Parameters: human IM-9 lymphoblasts, that express IR-A exclusively; host or cells: human IM-9 lymphoblasts (whole cells)
# test.conditions: competition with 125I-insulin, IM-9 cells; mean ± S.D. (n), n ≥ 3 binding curves each in duplicate; measurement series #; SD
# Method: For receptor binding studies, human IM-9 lymphoblasts, that express IR-A exclusively, and R^−/IR-B and R^+ murine embryonic fibroblasts were used for a whole-cell receptor-binding assay. Receptor binding assays on IR-A were perfomed accoding to Morcavallo et al. [24]and binding assays on IR-B and IGF1R were performed according to Kosinova et al.. […] Human ^125I-insulin was prepared as described by Asai et al. and human ^125I-IGF-1 was prepared as described in Kertisova et al..
Bridge positions count the residues as written; N and C are the ends. Ends that are not written are not given here. I, II: the chains in the order shown.
attribute.measured: Kd (nM)
Quick reminder: number only, in nM, skip the unit.

## Task Which measured Kd value corresponds to I: ILAQTLCGSELVDALELVCGEYGGIYRPPK / II: KIVDVCCTTKGCNYMDLKQYCN (disulfide I:7-II:7, I:19-II:21, II:6-II:12) [dcLCDV-Sa] ?
## Result 487

Source listed as paper PMC10831276.
